assay_target: Bone morphogenetic protein receptor type-1A (Homo sapiens)
Sequence (P36894 whole entry): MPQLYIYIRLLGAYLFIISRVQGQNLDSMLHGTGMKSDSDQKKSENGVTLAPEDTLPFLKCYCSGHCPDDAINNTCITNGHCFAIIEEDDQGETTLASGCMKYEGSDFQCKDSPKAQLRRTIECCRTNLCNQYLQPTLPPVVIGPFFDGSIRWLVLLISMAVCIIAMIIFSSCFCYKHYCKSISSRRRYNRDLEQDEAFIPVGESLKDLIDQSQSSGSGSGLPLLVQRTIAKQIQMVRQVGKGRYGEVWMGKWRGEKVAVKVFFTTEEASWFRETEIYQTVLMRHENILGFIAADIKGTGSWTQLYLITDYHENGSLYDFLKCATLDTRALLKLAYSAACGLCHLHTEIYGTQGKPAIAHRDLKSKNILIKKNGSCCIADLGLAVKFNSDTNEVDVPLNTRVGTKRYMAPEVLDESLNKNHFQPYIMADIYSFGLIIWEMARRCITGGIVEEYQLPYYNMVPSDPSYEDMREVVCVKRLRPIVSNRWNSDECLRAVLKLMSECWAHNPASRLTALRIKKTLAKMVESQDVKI

| smiles_input | IC50, nM |
| --- | --- |
| CC(C)CN1c2ccc(-c3cncc(-c4ccc(=O)n(C(C)C)c4)c3)cc2CS1(=O)=O | 930 |

* * *

assay_target: Activin receptor type-1 (Homo sapiens)
Sequence (Q04771 whole entry): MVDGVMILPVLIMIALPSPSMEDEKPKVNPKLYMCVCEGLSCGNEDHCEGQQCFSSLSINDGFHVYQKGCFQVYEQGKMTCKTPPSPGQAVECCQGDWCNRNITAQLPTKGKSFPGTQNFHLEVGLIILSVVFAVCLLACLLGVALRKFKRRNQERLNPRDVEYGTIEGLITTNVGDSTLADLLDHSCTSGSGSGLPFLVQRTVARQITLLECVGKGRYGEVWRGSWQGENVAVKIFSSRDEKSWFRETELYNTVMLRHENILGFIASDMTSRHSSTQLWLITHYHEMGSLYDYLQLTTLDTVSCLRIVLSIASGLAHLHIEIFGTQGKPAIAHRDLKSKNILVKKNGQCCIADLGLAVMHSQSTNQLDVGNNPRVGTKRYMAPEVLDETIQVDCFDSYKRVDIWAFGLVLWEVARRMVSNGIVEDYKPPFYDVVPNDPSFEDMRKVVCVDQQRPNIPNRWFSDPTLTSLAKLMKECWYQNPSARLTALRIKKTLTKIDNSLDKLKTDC
assay_remarks: In Vitro Enzyme Inhibition Using a Biochemical Peptide Phosphorylation Assay- Caliper Assay: Example 54:The assays were performed in 384-well, low volume microtiter assay plates in a final reaction volume of 9 ul.
observable: IC50 (nM)

| smiles_input | reading |
| --- | --- |
| CC(C)CN1c2ccc(-c3cncc(-c4ccc(=O)n(C(C)C)c4)c3)cc2CS1(=O)=O | 160 |

Hello, the source for this data is ChEMBL document CHEMBL5728775, in case you need it.
